Data credit: ChEMBL document CHEMBL1133660

Assay: Partition coefficient (logP)
Format: physicochemical
Conditions: octanol/water
Experimental endpoint: logP

# Molecule, Experimental endpoint, Val
records = [
    ("CCN(CC)CCNC(=O)c1ccc(COCC(CNCC(C)(C)S)NCC(C)(C)S)cc1 (stereo unspecified)", "logP", -0.3),
]
